The entries below are paired with their reported pEC50.
# Tested on: Human PBMCs
# TEST_PROTOCOL: CD3/CD28 mediated PBMC proliferation assay
# Assay type: cell-based
# RECORDED_CONDITIONS: proliferation of human PBMCs stimulated with anti-CD3 and anti-CD28, 72 hours, Cell Titer-Glo
pEC50: −log10 of the molar value.

Would you please look over these solved cases?
{"CHEM_SMILES": "C=CC(=O)Nc1cccc(-n2c(NC(=O)c3nccs3)nc3cc(CN[C@@H](C)C(C)(C)C)ccc32)c1", "MEASURED_ON": "Human PBMCs", "pEC50": "< 7.00"}
{"CHEM_SMILES": "C=CC(=O)Nc1cccc(-n2c(NC(=O)c3ccno3)nc3cc(CN[C@@H](C)C(C)(C)C)ccc32)c1", "MEASURED_ON": "Human PBMCs", "pEC50": "7.00 to 8.00"}
{"CHEM_SMILES": "C=CC(=O)Nc1cccc(-n2c(NC(=O)c3cnco3)nc3cc(CN[C@@H](C)C(C)(C)C)ccc32)c1", "MEASURED_ON": "Human PBMCs", "pEC50": "7.00 to 8.00"}
{"CHEM_SMILES": "C=CC(=O)N1CCOc2ccc(-n3c(NC(=O)c4ccc(C(F)F)s4)nc4cc(CN[C@@H](C)C(C)(C)C)ccc43)cc21", "MEASURED_ON": "Human PBMCs", "pEC50": "7.00 to 8.00"}
{"CHEM_SMILES": "C=CC(=O)N[C@H]1C[C@@H](n2c(NC(=O)c3ccc(C(F)F)s3)nc3cc(N(C)C(=O)C4CCCCC4)ccc32)C1", "MEASURED_ON": "Human PBMCs", "pEC50": "< 7.00"}
{"CHEM_SMILES": "C[C@H](NCc1ccc2c(c1)nc(NC(=O)c1ccc(C(F)F)s1)n2-c1cccc(NC(=O)/C=C/CN(C)C)c1)C(C)(C)C", "MEASURED_ON": "Human PBMCs", "pEC50": "< 7.00"}

The observed pEC50 for C=CC(=O)Nc1cccc(-n2c(NC(=O)c3ccc(C(F)F)s3)nc3cc(CN[C@H](CO)C(C)(C)C)ccc32)c1 when tested with Human PBMCs stands at > 8.00
